Attribution: PubChem BioAssay AID720584

system: Trypanosoma brucei pyruvate kinase (TbPYK); test: qHTS of Trypanosoma Brucei Inhibitors: Orthogonal Assay for Cherry-picked Compounds; details: recombinant TbPYK, ADP-Glo luminescence, 60 min; series mostly up to 76.9 µM; also: nearly all actives have a fitted effect of over 75% in size; also: potency is read from the fitted curve at half-maximal effect
This is one part of the list. Inconclusive results are not listed. Active and inactive are the calls of the source. Calls follow the shape of the dose curve; as a rule, active = well fitted inhibition curve with a large enough effect; inconclusive = small, poorly fitted or top-dose-only effect; inactive = flat fitted curve, though single readings scatter.

molecule: Cc1ccc(NC(=O)c2cc(-c3ccc(C)o3)nc3ccccc23)nc1
Potency: 35.5 µM (active)
--
molecule: C=CCn1c(=S)[nH]c2scc(-c3ccco3)c2c1=O
Potency: 17.8 µM (active)
--
molecule: Cc1cccc(-n2c(N)c(C(=O)N3CCN(C)CC3)sc2=S)c1
Potency: 5.01 µM (active)
--
molecule: O=C(CN1CCN(c2ccc(O)cc2)CC1)Nc1cc(S(=O)(=O)N2CCOCC2)ccc1Cl
Potency: 12.6 µM (active)
--
molecule: Cc1nc2ccc(S(=O)(=O)NCC(=O)O)cc2s1
Potency: 11.2 µM (active)
--
molecule: COc1cc(C2CC(=O)N3CN(Cc4ccccc4)CSC3=C2C#N)ccc1OCc1ccccc1 (stereo not drawn)
Potency: 0.447 µM (active)
--
molecule: COc1cccc(C(=O)c2cc3ccc(O)cc3oc2=O)c1
Potency: inactive
--
molecule: Oc1c(CN2CCOCC2)ccc(CN2CCOCC2)c1O
Potency: 7.08 µM (active)
--
molecule: COc1ccc(Cc2nnc(NS(=O)(=O)Cc3ccccc3)s2)cc1
Potency: inactive
--
molecule: Cc1nonc1C(=O)N/N=C/c1ccc(O)cc1
Potency: inactive
--
molecule: O=C(Nc1ccc(S(=O)(=O)N2CCOCC2)cc1)c1ccc2ncsc2c1
Potency: 15.8 µM (active)
--
molecule: O=C(COC(=O)c1ccccc1)c1ccc2c(c1)OCCO2
Potency: inactive
--
molecule: Cc1ccc(C)c2c1cc(C)c1nnc(SCC(=O)Nc3cccc(C(=O)O)c3)n12
Potency: 1 µM (active)
--
molecule: Cc1cc(C2=NNC(=Nc3ccc(S(=O)(=O)N4CCOCC4)cc3)SC2)c(C)n1CC1CCCO1 (stereo not drawn)
Potency: 15.8 µM (active)
--
molecule: COCCNC(=O)Nc1ccc2nc(-c3ccco3)c(-c3ccco3)nc2c1
Potency: 8.91 µM (active)
--
molecule: O=C1C=CC(=O)N1c1ccc(N2CCCCC2)cc1
Potency: 3.55 µM (active)
--
molecule: c1ccc(-c2nnc3n2NC(c2ccc4c(c2)OCO4)S3)cc1 (stereo not drawn)
Potency: 0.141 µM (active)
--
molecule: CC(=O)N1CC[n+]2c(-c3ccc([N+](=O)[O-])cc3)csc21
Potency: 1.78 µM (active)
